Just for reference, paper PMC7826789 is where these values come from.

System: HIPK3;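 also: KINOMEscan scanMAX binding as percent activity remaining versus control; lower means stronger binding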
details: Compound Concentration (nM):1000
recorded endpoint: Percent Control (%)
Number only, in %; omit the unit.

Solved cases below.
molecule	readout unit	Percent Control
Cc1cc(O)cc(C)c1/C=C/c1cncc(C(N)=O)c1 [GW435821X]	%	100
CC(C)COC(=O)c1ccc2c(c1)/C(=C/Nc1ccc(S(N)(=O)=O)cc1)C(=O)N2 [GW416981X]	%	63
CC1=C(C(=O)Nc2ccc3[nH]ncc3c2)C(c2ccc(Cl)c(Cl)c2)CC(=O)N1 (stereo not drawn) [GSK299115A]	%	83
Cl.O=S1CCN(Cc2ccc(-c3ccc4ncnc(Nc5ccc(OCc6ccccc6)c(F)c5)c4c3)o2)CC1 [GW576924A]	%	97
CCc1ccc(Oc2nccc(-c3c(-c4ccc(F)cc4)ncn3C3CCNCC3)n2)cc1	%	100

Prompt: Percent Control lookup needed for CN1CCN(C(=O)c2ccc(NC(=O)Nc3ccc(N(C)c4ccnc(Nc5ccc(CS(C)(=O)=O)cc5)n4)cc3)cc2)CC1.Cl [GW830263A] , thanks.
Response: 71
